test system: A549 NSCLC; test: NCI tumour cell line growth inhibition, 48 h
For each record, write down the corresponding TGI.

INPUT: For the molecule NCCCn1c(Cl)nc2ccccc21 , what TGI is on record?
OUTPUT: > 100 µM

INPUT: For the molecule OCc1c(-c2cccs2)oc(-c2cccs2)c1CO , what TGI is on record?
OUTPUT: > 100 µM

INPUT: For the molecule CCC1c2[nH]c3ccccc3c2C[C@H]2C(=O)NC(C)C(=O)N12 (stereo partly specified) , what TGI is on record?
OUTPUT: > 100 µM

INPUT: For the molecule CS(=O)(=O)OCCN(CCOS(C)(=O)=O)c1ccc(C=Nc2ccc(-c3csc(Cc4ccccc4)n3)cc2)c(Cl)c1 , what TGI is on record?
OUTPUT: > 83.7 µM

INPUT: For the molecule CN(c1cccc(C(=O)O)c1)c1cc(O/N=[N+](\[O-])N(C)C)c([N+](=O)[O-])cc1[N+](=O)[O-] , what TGI is on record?
OUTPUT: > 100 µM

INPUT: For the molecule CCOC(=O)/C(C(N)=O)=C(\O)C(=O)/C=C(\O)c1ccc(Cl)cc1 , what TGI is on record?
OUTPUT: > 100 µM

INPUT: For the molecule COc1ccc2nc3cc(Cl)ccc3c(Sc3ccc(N)cc3)c2c1 , what TGI is on record?
OUTPUT: 30.1 µM

INPUT: For the molecule N[C@H]1CCC[C@@H](O)C1O (stereo partly specified) , what TGI is on record?
OUTPUT: > 100 µM

INPUT: For the molecule COc1cc(C[C@@]2(C)[C@@H]3CCC[C@H](CO)[C@@]3(C)CC[C@@H]2C)c(Cl)c(OC)c1 , what TGI is on record?
OUTPUT: 29.6 µM

INPUT: For the molecule COCN1COCN(C)C1=O , what TGI is on record?
OUTPUT: > 100 µM

INPUT: For the molecule CC(=O)c1cc2c(Br)cccc2oc1=O , what TGI is on record?
OUTPUT: > 100 µM

----------
tested on: HS 578T breast; assay: NCI tumour cell line growth inhibition, 48 h
EXPERIMENTAL_ENDPOINT: TGI (µM)
All answers are understood in µM, so give the number only.

INPUT: For the compound ClCCCN1CCN(CCCl)CC1 , what TGI is on record?
OUTPUT: 885

INPUT: For the compound Cc1cc(NC(=O)NCCOc2ccc(N3C(N)=NC(N)=NC3(C)C)cc2Cl)ccc1S(=O)(=O)F , what TGI is on record?
OUTPUT: 76.8

INPUT: For the compound COC(=O)C1(Cc2ccc3c(c2)CCC3)Cc2ccc3c(c2C1=O)CCC3 (configuration not stated) , what TGI is on record?
OUTPUT: 16.4

----------
tested on: SF-539 CNS; experiment: NCI tumour cell line growth inhibition, 48 h; in the data active = GI50 below about 0.43 µM; inactive = the rest
Assign a class; possible classes are TRUE = active, FALSE = inactive

INPUT: State the result this test recorded for CN(c1cccc(C(=O)O)c1)c1cc(O/N=[N+](\[O-])N(C)C)c([N+](=O)[O-])cc1[N+](=O)[O-] .
OUTPUT: FALSE

INPUT: State the result this test recorded for CN(C)Cc1ccc(NC(=O)c2cncc(C#Cc3cnc(N)c4ncccc34)c2)cc1C(F)(F)F .
OUTPUT: FALSE

INPUT: State the result this test recorded for COc1ccc(-c2cn(C)c3c2-n2cccc2C3=O)cc1O .
OUTPUT: FALSE

INPUT: State the result this test recorded for CCN1C(=O)N(CC)C2C1NN=c1s/c(=C3\C(=O)Nc4ccccc43)c(=O)n12 (centres undefined) .
OUTPUT: TRUE

INPUT: State the result this test recorded for COc1ccc(CCN2CCCn3c2nc2ccccc2c3=O)cc1 .
OUTPUT: TRUE

INPUT: State the result this test recorded for COc1ccc(Cn2cc3c(c2-c2ccccc2)CCc2cnoc2-3)cc1 .
OUTPUT: TRUE

INPUT: State the result this test recorded for O=C(CSSCC(=O)c1ccc(Cl)cc1)c1ccc(Cl)cc1 .
OUTPUT: FALSE

INPUT: State the result this test recorded for Cc1cccc(CNc2c3ccccc3nc3ccccc23)c1 .
OUTPUT: FALSE

INPUT: State the result this test recorded for COc1ccc(-n2nc(C)c3c(Nc4ccc(NC(=O)Nc5cccc(C(F)(F)F)c5)cc4)ncnc32)cc1 .
OUTPUT: FALSE

INPUT: State the result this test recorded for CNC(=O)[C@H](Cc1c[nH]c2ccccc12)NC(=O)[C@@H](CC(=O)NO)CC(C)C .
OUTPUT: FALSE

INPUT: State the result this test recorded for COc1ccc(-c2nc(NC(=O)CS(=O)(=O)c3ccc(F)cc3)sc2C)cc1 .
OUTPUT: FALSE

INPUT: State the result this test recorded for O=[N+]([O-])c1ccc(Sc2cccc[n+]2[O-])c2nonc12 .
OUTPUT: FALSE

INPUT: State the result this test recorded for O=[N+]([O-])c1ccccc1/C=N\NC(=S)N/N=C/c1ccccc1[N+](=O)[O-] .
OUTPUT: FALSE

INPUT: State the result this test recorded for C[C@H]1C[C@@H](n2c(Nc3ccc(OC(F)(F)F)cc3)nc3cc(CCC(=O)O)ccc32)CC(C)(C)C1 .
OUTPUT: FALSE

Taken from PubChem BioAssay (NCI).
